From: patent US9820487B2

# maps each entry to its potency estimated from few doses
Target: abscisic acid 8′-hydroxylase CYP707A3 (Arabidopsis thaliana, UniProt Q9FH76)
Sequence (Q9FH76 whole entry): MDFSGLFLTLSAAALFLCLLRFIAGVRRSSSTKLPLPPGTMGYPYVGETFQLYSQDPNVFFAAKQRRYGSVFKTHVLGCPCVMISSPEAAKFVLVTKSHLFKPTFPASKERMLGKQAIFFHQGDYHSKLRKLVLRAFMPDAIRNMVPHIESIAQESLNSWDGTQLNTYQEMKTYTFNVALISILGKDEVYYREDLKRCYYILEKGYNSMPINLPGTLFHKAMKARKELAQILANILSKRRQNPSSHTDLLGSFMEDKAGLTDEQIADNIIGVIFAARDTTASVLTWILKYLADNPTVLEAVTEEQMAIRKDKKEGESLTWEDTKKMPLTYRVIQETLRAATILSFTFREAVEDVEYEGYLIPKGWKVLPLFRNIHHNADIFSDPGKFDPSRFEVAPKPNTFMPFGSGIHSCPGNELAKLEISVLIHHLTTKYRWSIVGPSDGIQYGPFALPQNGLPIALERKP
Test: Abscisic acid 8′-hydroxylase CYP707A3 inhibition test
Assay type: biochemical
Settings: CYP707A3 + NADPH-P450 reductase ATR1, substrate ABA, 30° C. 10 minutes; IC50 calculated from two concentrations
Supply the numeric figure in nM, leaving out any unit text.

[
  {
    "compound": "CCCCOCCOCCOCC#Cc1ccc(/C=C(\\C(O)C(C)(C)C)n2cncn2)cc1 (single isomer, unassigned) [Example 4 (−) Form]",
    "potency estimated from few doses (nM)": 200
  },
  {
    "compound": "COCCOCCOCCOCC#Cc1ccc(/C=C(\\C(O)C(C)(C)C)n2cncn2)cc1 (single isomer, unassigned) [Example 3 (+) Form]",
    "potency estimated from few doses (nM)": 7700
  },
  {
    "compound": "CCCCOCCOCCOCC#Cc1ccc(/C=C(\\C(O)C(C)(C)C)n2cncn2)cc1 (single isomer, unassigned) [Example 4 (+) Form]",
    "potency estimated from few doses (nM)": 1000
  },
  {
    "compound": "CCCCOCCOCCOCc1cn(-c2ccc(/C=C(\\C(O)C(C)(C)C)n3cncn3)cc2)nn1 (single isomer, unassigned) [Comparative Example 1 (+) Form, reference compound]",
    "potency estimated from few doses (nM)": 1100
  },
  {
    "compound": "COCCOCCOCCOCC#Cc1ccc(/C=C(\\C(O)C(C)(C)C)n2cncn2)cc1 (single isomer, unassigned) [Example 3 (−) Form]",
    "potency estimated from few doses (nM)": 1500
  },
  {
    "compound": "CCCCOCCOCCOCC#Cc1cccc(/C=C(\\C(O)C(C)(C)C)n2cncn2)c1 (single isomer, unassigned) [Example 2 (+) Form]",
    "potency estimated from few doses (nM)": 240
  }
]

Here is another compound to look at.
Could you share which potency estimated from few doses value was measured for COCCOCCOCCOCC#Cc1cccc(/C=C(\[C@@H](O)C(C)(C)C)n2cncn2)c1 [Example 1 (−) Form] ? 64

---

Target: ent-kaurene oxidase CYP701A6 (Oryza sativa subsp. japonica, UniProt Q5Z5R4)
Sequence (Q5Z5R4 whole entry): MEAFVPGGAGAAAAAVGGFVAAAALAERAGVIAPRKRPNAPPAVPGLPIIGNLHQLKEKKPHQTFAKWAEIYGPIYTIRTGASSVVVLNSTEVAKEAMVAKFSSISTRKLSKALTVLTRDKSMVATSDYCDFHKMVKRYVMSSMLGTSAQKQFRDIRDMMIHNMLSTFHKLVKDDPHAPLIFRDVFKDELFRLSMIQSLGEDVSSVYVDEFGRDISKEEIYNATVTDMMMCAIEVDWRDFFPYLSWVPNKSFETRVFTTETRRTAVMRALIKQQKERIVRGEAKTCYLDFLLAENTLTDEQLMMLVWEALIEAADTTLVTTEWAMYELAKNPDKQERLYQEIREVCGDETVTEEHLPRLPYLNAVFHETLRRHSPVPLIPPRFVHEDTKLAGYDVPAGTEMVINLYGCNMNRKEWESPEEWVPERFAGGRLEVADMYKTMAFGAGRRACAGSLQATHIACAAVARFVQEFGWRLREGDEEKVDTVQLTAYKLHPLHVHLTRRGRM
Assay: Ent-kaurene oxidase CYP701A6 inhibition test
Format: biochemical
Details: CYP701A6 + NADPH-P450 reductase ATR2, substrate ent-kaurene, 30° C. 30 minutes; IC50 calculated from two concentrations
Could you please classify the records by potency estimated from few doses using these ranges: b0 (below 0.8 µM), b1 (0.8 µM to below 2 µM), b2 (2 µM or more)

Below, 2 molecules whose answers are already recorded.
[
  {
    "molecule": "CCCCOCCOCCOCC#Cc1cccc(/C=C(\\C(O)C(C)(C)C)n2cncn2)c1 (single isomer, unassigned) [Example 2 (+) Form]",
    "tested_target": "ent-kaurene oxidase CYP701A6 (Oryza sativa subsp. japonica, UniProt Q5Z5R4)",
    "answer_label": "b0"
  },
  {
    "molecule": "CCCCOCCOCCOCC#Cc1ccc(/C=C(\\C(O)C(C)(C)C)n2cncn2)cc1 (single isomer, unassigned) [Example 4 (+) Form]",
    "tested_target": "ent-kaurene oxidase CYP701A6 (Oryza sativa subsp. japonica, UniProt Q5Z5R4)",
    "answer_label": "b1"
  }
]

Proceed to the following item.
For CCCCOCCOCCOCc1cn(-c2ccc(/C=C(\C(O)C(C)(C)C)n3cncn3)cc2)nn1 (single isomer, unassigned) [Comparative Example 1 (−) Form, reference compound] , which potency estimated from few doses bin applies? b1
